src = patent US20120270929A1

System: ABCA1 mRNA
Experiment: ABCA1 mRNA levels in C57BL/6 mice after TTC39B inhibition
Format: in vivo, mouse
Conditions: 50 mg/kg/week, 6 weeks
Oligonucleotides are written 5' to 3', each unit as a sugar letter and its base; * is a phosphorothioate linkage, no mark a phosphodiester; rarer units and linkages stand in square brackets, end groups in braces. Plain capitals give the bases only. e = 2'-O-(2-methoxyethyl) (MOE); [5mC] = 5-methylcytosine; d = 2'-deoxy (DNA)
quantity.kind: abcA1 mRNA levels (effect of TTC39B inhibition)
// no unit string in output, number only

Reported abcA1 mRNA levels (effect of TTC39B inhibition) (ABCA1 mRNA) for entry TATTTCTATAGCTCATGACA (antisense eT*eA*eT*eT*eT*d[5mC]*dT*dA*dT*dA*dG*d[5mC]*dT*d[5mC]*dA*eT*eG*eA*e[5mC]*eA) [ISIS 447144] is 0

Reported abcA1 mRNA levels (effect of TTC39B inhibition) (ABCA1 mRNA) for entry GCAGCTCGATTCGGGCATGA (antisense eG*e[5mC]*eA*eG*e[5mC]*dT*d[5mC]*dG*dA*dT*dT*d[5mC]*dG*dG*dG*e[5mC]*eA*eT*eG*eA) [ISIS 447118] is −2

Reported abcA1 mRNA levels (effect of TTC39B inhibition) (ABCA1 mRNA) for entry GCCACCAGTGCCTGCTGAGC (antisense eG*e[5mC]*e[5mC]*eA*e[5mC]*d[5mC]*dA*dG*dT*dG*d[5mC]*d[5mC]*dT*dG*d[5mC]*eT*eG*eA*eG*e[5mC]) [ISIS 447143] is −17

Reported abcA1 mRNA levels (effect of TTC39B inhibition) (ABCA1 mRNA) for entry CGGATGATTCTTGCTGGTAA (antisense e[5mC]*eG*eG*eA*eT*dG*dA*dT*dT*d[5mC]*dT*dT*dG*d[5mC]*dT*eG*eG*eT*eA*eA) [ISIS 447114] is −18
